Tested on: Fibroblast
Assay details: Incucyte cell viability with human fibroblast; also: unitless GR value; below 1 slowed growth and below 0 cell loss
Assay type: toxicity, cell-based
Conditions used: 12 h, 10 µM, compound concentration 10 uM, replicate number 2, timepoint 12 hours
Just so you know, the groups by Growth Rate go like this: band 1 (below 0.6), band 2 (0.6 to below 0.8), band 3 (0.8 or more)

q: Any idea which band "Brc1c(N=C2NCCN2)ccc2nccnc12.O=C(O)C(O)C(O)C(=O)O" is in?
a: band 3

###

Test system: Fibroblast
Assay details: Incucyte cell viability with human fibroblast; also: unitless GR value; below 1 slowed growth and below 0 cell loss
Format: toxicity, cell-based
Conditions used: 6 h, 10 µM, compound concentration 10 uM, replicate number 2, timepoint 6 hours
Where a SMILES comes first, the peptide text is derived from it. [ ]: non-standard residue; d: D form.
Quantity kind: Growth Rate
Lab note: write the figure by itself, no unit.

Please review the entries below; each comes with its answer.
| Compound | Tgt | Growth Rate |
| --- | --- | --- |
| CCOc1nc2cccc(C(=O)O)c2n1Cc1ccc(-c2ccccc2-c2nnn[nH]2)cc1 | Fibroblast | 0.71 |
| CC(C)C[C@@H]1NC(=O)[C@@H](C(C)C)NC(=O)[C@@H]2CCCN2C(=O)[C@@H](CC(=O)O)NC(=O)[C@@H](Cc2c[nH]c3ccccc23)NC1=O [BQ-123] (cyclo(L[dW][dD]P[dV])) | Fibroblast | 0.18 |
| CCS(=O)(=O)Nc1ccc(Oc2ccc(F)cc2F)c(-c2cn(C)c(=O)c3[nH]ccc23)c1 | Fibroblast | 0.52 |

q: Please list Growth Rate recorded for the compound "C[C@H](N)Cn1ccc2cc(F)c(Cl)cc21.O=C(O)/C=C/C(=O)O"
a: 0.72
